Test system: IL-6
assay_comment: IL-6 assay (ELISA) in Ad5-wt-ER infected HAECT-1 cells (IL-1β induced)
Type: cell-based, human
conditions: Homo sapiens, HAECT1
pIC50: −log10 of the molar value.
recorded_metric: pIC50

Guide cases for pIC50, answers given:
C[C@@H]1c2cccn2-c2ccc(F)cc2N1C(=O)c1cccc(O)c1 [131 (R)] = 6.75
CC[C@H]1c2ccc(C#N)n2-c2ccc(F)cc2N1C(=O)c1ccc(O)cc1 = 7.54

1: CC1c2cccn2-c2ccc(Br)cc2N1C(=O)c1ccc(O)cc1 (stereo not drawn)
2: CC[C@@H]1c2cccn2-c2ccc(F)cc2N1C(=O)c1ccc(O)cc1 [119 (R)]
3: C[C@H]1c2cccn2-c2ccc(F)cc2N1C(=O)c1cccc(O)c1 [131 (S)]
4: CCC1c2cccn2-c2c(cc(F)c(F)c2F)N1S(=O)(=O)c1cccc(O)c1 (stereo not drawn)
5: CCC1c2ccc(C#N)n2-c2ccc(Br)cc2N1S(=O)(=O)c1ccc(O)cc1 (stereo not drawn)
Rank order required: pIC50, descending. // rank by listing labels in the order requested 2, 4, 1, 5, 3
(2: 8.10, 4: 7.85, 1: 7.28, 5: 6.35, 3: 5.84)

1: CCC1c2cccn2-c2ccc(Br)cc2N1C(=O)c1ccc(O)cc1O (stereo not drawn)
2: CC[C@H]1c2cccn2-c2ccc(Br)cc2N1C(=O)c1ccc(O)cc1 [111 (S)]
Lab note: check whether 1 or 2 shows the higher recorded pIC50. Lab note: record the label of whichever item you select. 1

1: CC[C@@H]1c2cccn2-c2ccc(Br)cc2N1C(=O)c1ccc(O)cc1 [111 (R)]
2: CC[C@@H]1c2cccn2-c2ccc(Cl)cc2N1C(=O)c1ccc(O)cc1O [125 (R)]
3: CCC1c2ccc(C#N)n2-c2cc(F)c(F)cc2N1S(=O)(=O)c1cccc(O)c1 (stereo not drawn)
Rank order required: pIC50, descending. // rank by listing labels in the order requested 2, 1, 3
(2: 9.40, 1: 7.34, 3: 6.16)

A: CCC1c2cccn2-c2ccc(Br)cc2N1S(=O)(=O)c1cccc(O)c1 (stereo not drawn)
B: CC[C@H]1c2ccc(C#N)n2-c2cc(F)c(F)cc2N1S(=O)(=O)c1ccc(OS(N)(=O)=O)c(C)c1
C: C[C@H]1c2cccn2-c2ccc(Br)cc2N1C(=O)c1cccc(O)c1 [107 (S)]
Let's sort these by pIC50, smallest first. Go ahead? // rank by listing labels in the order requested C, B, A
(C: 5.97, B: 7.00, A: 7.29)

* * *

Tested on: ER/Nf-kB
assay_comment: ER/NF-κB luciferase reporter assay in Ad5-wt-ER infected HAECT-1 cells (IL-1β induced)
Type: cell-based, human
conditions: Homo sapiens, HAECT1
pIC50: −log10 of the molar value.
recorded_metric: pIC50

CCC1c2ccc(C#N)n2-c2ccc(F)cc2N1S(=O)(=O)c1ccc(O)c(C)c1 (stereo not shown) = 5.88

A: CCC1c2ccc(C#N)n2-c2ccc(C(F)(F)F)cc2N1S(=O)(=O)c1ccc(O)c(C)c1 (stereo not shown)
B: CCC1c2ccc(C#N)n2-c2cc(F)c(F)cc2N1S(=O)(=O)c1ccc(O)c(C)c1 (stereo not shown)
C: CCC1c2ccc(C#N)n2-c2ccc(F)cc2N1S(=O)(=O)c1ccc(O)cc1 (stereo not shown)
Let's sort these by pIC50, smallest first. Go ahead? // rank by listing labels in the order requested A, B, C

* * *

System: IL-6
assay_comment: IL-6 assay (ELISA) in Ad5-wt-ER infected HAECT-1 cells (IL-1β induced)
Type: cell-based, human
conditions: Homo sapiens, HAECT1
pIC50: −log10 of the molar value.
recorded_metric: pIC50

Guide cases for pIC50, answers given:
CC[C@H]1c2cccn2-c2c(cc(F)c(F)c2F)N1S(=O)(=O)c1ccc(O)cc1 [97 (S)] = 8.05
CC[C@H]1c2cccn2-c2ccc(F)cc2N1C(=O)c1ccc(O)cc1O [121 (S)] = 7.14
CCC1c2cccn2-c2ccc(F)cc2N1S(=O)(=O)c1cccc(O)c1 (stereo not drawn) = 7.39
CC(C)(C)[C@H]1c2cccn2-c2ccc(Br)cc2N1C(=O)c1cccc(O)c1 [115 (S)] = 6.34
CC[C@H]1c2ccc(C#N)n2-c2ccc(Br)cc2N1S(=O)(=O)c1ccc(O)cc1 = 6.82
CC[C@H]1c2ccc(C#N)n2-c2cc(F)c(F)cc2N1S(=O)(=O)c1ccc(OS(N)(=O)=O)cc1 = 6.75
CC1c2cccn2-c2ccc(Br)cc2N1C(=O)c1ccc(O)cc1O (stereo not drawn) = 7.38

1: CC[C@@H]1c2ccc(C#N)n2-c2ccc(Br)cc2N1S(=O)(=O)c1ccc(O)cc1
2: CC(C)(C)C1c2cccn2-c2ccc(Br)cc2N1C(=O)c1cccc(O)c1 (stereo not drawn)
Which of these two has the smaller recorded pIC50: 1 or 2 ? Lab note: record the label of whichever item you select. 1

* * *

System: creatine kinase
assay_comment: Creatine kinase assay in Ad5-wt-ER infected HAECT-1 cells
Format: cell-based, human
conditions: Homo sapiens, HAECT1, CK stimulation, N/O = activity not observed at concentrations tested, read-out: CK IC50
recorded_metric: EC50 (nM)

CC[C@H]1c2ccc(C#N)n2-c2cc(F)c(F)cc2N1S(=O)(=O)c1ccc(OS(N)(=O)=O)c(C)c1 [Example 103] = 34

P: CC[C@H]1c2cccn2-c2c(cc(F)c(F)c2F)N1S(=O)(=O)c1ccc(O)cc1 [97 (S)]
Q: CCC1c2ccc(C#N)n2-c2ccc(C(F)(F)F)cc2N1S(=O)(=O)c1ccc(O)c(C)c1 (stereo not shown) [Example 59]
R: CC1c2cccn2-c2ccc(Br)cc2N1C(=O)c1ccc(O)cc1O (stereo not shown) [Example 109]
Rank order required: EC50, descending. // rank by listing labels in the order requested Q, R, P

* * *

Tested on: creatine kinase
assay_comment: Creatine kinase assay in Ad5-wt-ER infected HAECT-1 cells
Format: cell-based, human
conditions: Homo sapiens, HAECT1, relative to maximal stimulation observed with E2, read-out: CK Efficacy
recorded_metric: Emax (%)
Give just the numeric value; % need not be written.

Guide cases for Emax, answers given:
CC[C@H]1c2cccn2-c2c(cc(F)c(F)c2F)N1S(=O)(=O)c1ccc(O)cc1 [97 (S)] = 37
CC[C@H]1c2cccn2-c2ccc(F)cc2N1C(=O)c1ccc(O)cc1O [121 (S)] = 32
CC[C@H]1c2ccc(C#N)n2-c2ccc(F)cc2N1C(=O)c1ccc(O)cc1 = -7
CC1c2cccn2-c2ccc(Br)cc2N1C(=O)c1ccc(O)cc1O (centres unmarked) = 40
CC[C@@H]1c2cccn2-c2ccc(F)cc2N1C(=O)c1ccc(O)cc1 [119 (R)] = 27
CC(C)(C)C1c2cccn2-c2ccc(Br)cc2N1C(=O)c1ccc(O)cc1O (centres unmarked) = 42
CC[C@@H]1c2cccn2-c2cc(F)c(F)cc2N1S(=O)(=O)c1ccc(O)c(C)c1 [102 (R)] = 31
CCC1c2cccn2-c2ccc(Br)cc2N1C(=O)c1cccc(O)c1 (centres unmarked) = 21

Provide Emax value for the following compound: CCC1c2cccn2-c2c(cc(F)c(F)c2F)N1S(=O)(=O)c1cccc(O)c1 (centres unmarked) 42

Provide Emax value for the following compound: CC[C@H]1c2ccc(C#N)n2-c2ccc(Br)cc2N1S(=O)(=O)c1ccc(O)cc1 7

Provide Emax value for the following compound: CC[C@@H]1c2cccn2-c2ccc(F)cc2N1C(=O)c1cccc(O)c1 [127 (R)] 35

Provide Emax value for the following compound: CC[C@@H]1c2ccc(C#N)n2-c2ccc(Br)cc2N1S(=O)(=O)c1ccc(O)cc1 -4

Provide Emax value for the following compound: CC[C@@H]1c2cccn2-c2ccc(F)cc2N1C(=O)c1ccc(O)cc1O [121 (R)] 36

Provide Emax value for the following compound: CCC1c2ccc(C#N)n2-c2ccc(C(F)(F)F)cc2N1S(=O)(=O)c1ccc(O)c(C)c1 (centres unmarked) -13

Provide Emax value for the following compound: CC[C@H]1c2ccc(C#N)n2-c2cc(F)c(F)cc2N1S(=O)(=O)c1ccc(O)c(C)c1 [Example 11B] 96

Provide Emax value for the following compound: CCC1c2cccn2-c2ccc(F)cc2N1C(=O)c1ccc(O)cc1 (centres unmarked) 32

Provide Emax value for the following compound: CC[C@H]1c2ccc(C#N)n2-c2cc(F)c(F)cc2N1S(=O)(=O)c1ccc(OS(N)(=O)=O)c(C)c1 -18

* * *

Test system: creatine kinase
assay_comment: Creatine kinase assay in Ad5-wt-ER infected HAECT-1 cells
Assay type: cell-based, human
conditions: Homo sapiens, HAECT1, CK stimulation, N/O = activity not observed at concentrations tested, read-out: CK IC50
pEC50: −log10 of the molar value.
recorded_metric: pEC50

CC[C@H]1c2ccc(C#N)n2-c2cc(F)c(F)cc2N1S(=O)(=O)c1ccc(O)cc1 [101 (S)] = 7.04
CC[C@H]1c2cccn2-c2ccc(F)cc2N1C(=O)c1ccc(O)cc1O [121 (S)] = 7.19
CCC1c2cccn2-c2ccc(F)cc2N1C(=O)c1ccc(O)cc1 (stereo not drawn) = 7.70

a: CCC1c2ccc(C#N)n2-c2ccc(F)cc2N1S(=O)(=O)c1ccc(O)cc1 (stereo not drawn)
b: C[C@@H]1c2cccn2-c2ccc(F)cc2N1C(=O)c1ccc(O)cc1 [123 (R)]
c: CC(C)(C)C1c2cccn2-c2ccc(Br)cc2N1C(=O)c1ccc(O)cc1O (stereo not drawn)
Let's sort these by pEC50, smallest first. Go ahead? // rank by listing labels in the order requested b, a, c
